# RUN DESCRIPTION: Liver Microsome Stability Assay (rat)
# CONDITION SET: rat liver microsomes, with NADPH, 1.0 uM compound
PROPERTY MEASURED: Liver Microsome Stability (Multiple Species): Rat - % Remaining after 30 min w/NADPH (%)

CC(=O)Nc1ccc(N2CCC[C@@H]2c2csc(NC(=O)c3cc(C)cn3Cc3ccnc(F)c3)n2)cc1 = 19.4

[P] CC(=O)N[C@@H](C)c1ccc(N2CCC[C@@H]2c2csc(NC(=O)c3cccn3Cc3ccncc3)n2)cc1
[Q] CCn1cnc(/C=C/c2csc(NC(=O)c3cccn3Cc3ccncc3)n2)c1
[R] CC(=O)N[C@H](C)c1ccc(N2CCC[C@@H]2c2csc(NC(=O)c3cccn3Cc3ccnc(F)c3)n2)cc1
[in] Hi! Can you put these in order of Liver Microsome Stability (Multiple Species): Rat - % Remaining after 30 min w/NADPH, lowest number first? Provide the ranking by listing each label in its place in the requested order.
[out] Q, R, P
(Q: 0.28%, R: 7.79%, P: 15%)

====

# Tested on: TNFα-FL/Gaussia Luciferase
# RUN DESCRIPTION: Dox Induced TNFα-FL-Gluc Assay
# Format: cell-based
# CONDITION SET: 24 hr Dox induction; 293FRT/TO cells; read-out: 24 hr Dox Inducible TNFaFLGluc 293FRT/TO: Mean IC50
pIC50: −log10 of the molar value.
PROPERTY MEASURED: pIC50

Solved entries:
CC(=O)N1CCC[C@@H](Oc2ccc(N3CCC[C@@H]3c3csc(NC(=O)c4cccn4Cc4ccnc(F)c4)n3)cc2)C1 [Compound A83] = 5.82
CC(=O)N1CCC(Oc2ccc(N3CCC[C@@H]3c3csc(NC(=O)c4cccn4Cc4ccnc(F)c4)n3)cc2C#N)CC1 [Compound A126] = 6.38
CC(=O)N1CCC(C)(Oc2ccc(N3CCC[C@@H]3c3csc(NC(=O)c4cccn4Cc4ccnc(F)c4)n3)cc2)CC1 [Compound A97] = 6.79
CN1CC(OC(=O)Nc2ccc(N3CCC[C@@H]3c3csc(NC(=O)c4cccn4Cc4ccnc(F)c4)n3)cc2)C1 [Compound A173] = 6.49

[I] COC(=O)Nc1ccc(N2CCC[C@@H]2c2csc(NC(=O)c3cc(C)cn3Cc3ccnc(F)c3)n2)nc1 [Compound A180]
[II] O=C(Nc1nc(/C=C/C2CN(c3ccccc3)CCO2)cs1)c1cccn1Cc1ccncc1 (stereo not shown) [Compound B18]
[in] Between I and II , which one has the lower reported pIC50 value? Choose, then provide that item's label.
[out] II

====

# Tested on: TNFα-FL/Gaussia Luciferase
# RUN DESCRIPTION: Dox Induced TNFα-FL-Gluc Assay
# Type: cell-based
# CONDITION SET: 24 hr Dox induction; 293FRT/TO cells; read-out: 24 hr Dox Inducible TNFaFLGluc 293FRT/TO: Mean IC50
pIC50: −log10 of the molar value.
PROPERTY MEASURED: pIC50

See these solved cases before continuing.
O=C(Nc1nc([C@H]2CCCN2c2ccc(F)cc2)cs1)c1cccn1Cc1ccncc1 [Compound A25] = 6.62
CC(=O)N[C@@H](C)c1ccc(N2CCC[C@@H]2c2csc(NC(=O)c3cccn3Cc3ccncc3)n2)cc1 [Compound A73] = 6.46
O=C(Nc1nc([C@H]2CCCN2c2ccc(Br)cc2)cs1)c1cccn1Cc1ccnc(F)c1 [Compound A116] = 7.40
CNC(=O)Nc1ccc(N2CCC[C@@H]2c2csc(NC(=O)c3cccn3Cc3ccnc(F)c3)n2)cc1 [Compound A119] = 7.38

[a] CC(C)OC(=O)Nc1ccc(N2CCC[C@@H]2c2csc(NC(=O)c3cccn3Cc3ccnc(F)c3)n2)cc1 [Compound A146]
[b] CC(=O)N1CCC(Oc2ccc(N3CCC[C@@H]3c3csc(NC(=O)c4cccn4Cc4ccnc(F)c4)n3)c(F)c2)CC1 [Compound A100]
[c] C[C@@H](N)c1ccc(N2CCC[C@@H]2c2csc(NC(=O)c3cccn3Cc3ccnc(F)c3)n2)cc1 [Compound A72]
[d] O=C(Nc1ccc(N2CCC[C@@H]2c2csc(NC(=O)c3cccn3Cc3ccnc(F)c3)n2)cc1)OC1CNC1 [Compound A178]
[e] NC(=O)c1ccc(N2CCC[C@@H]2c2csc(NC(=O)c3cccn3Cc3ccnc(F)c3)n2)cc1 [Compound A65]
[in] Sort the compounds on pIC50; start with the lowest figure. Please express your ranking as an ordered list of the labels.
[out] c, d, b, e, a
(c: 5.58, d: 6.03, b: 6.71, e: 7.18, a: 7.69)

[I] CC(=O)N(C)CCOc1ccc(N2CCC[C@@H]2c2csc(NC(=O)c3cccn3Cc3ccnc(F)c3)n2)cc1 [Compound A117]
[II] CC1CCCc2c(/C=C/c3csc(NC(=O)c4cccn4Cc4ccnc(F)c4)n3)ncn21 (stereo not shown) [Compound B101]
[in] Pick the one with the larger pIC50: I vs II Let me know the label of the one you choose.
[out] I
(I: 6.52, II: 4.72)

[A] O=C(Nc1nc([C@H]2CCCN2c2ccc(OC3COC3)cc2)cs1)c1cccn1Cc1ccncc1 [Compound A2]
[B] O=C(Nc1nc([C@H]2CCCN2c2ccc([N+](=O)[O-])cc2)cs1)c1cccn1Cc1ccncc1 [Compound A27]
[C] CN(C)C(=O)N1CC(Oc2ccc(N3CCC[C@@H]3c3csc(NC(=O)c4cccn4Cc4ccnc(F)c4)n3)cc2)C1 [Compound A131]
[in] Please list the entries, largest pIC50 first. Write the labels, ordered according to the request.
[out] A, C, B
(A: 6.68, C: 6.29, B: 5.96)

[A] O=C(Nc1nc([C@H]2CCCN2c2ccc(Cl)cc2)cs1)c1cccn1Cc1ccncc1 [Compound A26]
[B] C[S+]([O-])N1CC(Oc2ccc(N3CCC[C@@H]3c3csc(NC(=O)c4cccn4Cc4ccnc(F)c4)n3)cc2)C1 (stereo partly shown) [Compound A153]
[in] Sorting ascending by pIC50, which comes first: A or B ? // respond with label for picked entry
[out] B

====

# Test system: TNFα-FL/Gaussia Luciferase
# RUN DESCRIPTION: Dox Induced TNFα-FL-Gluc Assay
# Type: cell-based
# CONDITION SET: 24 hr Dox induction; 293FRT/TO cells; read-out: 24 hr Dox Inducible TNFaFLGluc 293FRT/TO: Mean IC50
PROPERTY MEASURED: IC50 (nM)

Here is how some molecules turned out for IC50.
CC(=O)Nc1ccc(N2CCC[C@@H]2c2csc(NC(=O)c3cccn3Cc3cc(F)nc(F)c3)n2)cc1 [Compound A122] = 191
CC(=O)N1CCC(Oc2ccc(N3CCC[C@@H]3c3csc(NC(=O)c4cccn4Cc4ccnc(F)c4)n3)cc2Cl)CC1 [Compound A140] = 361
NC(=O)Nc1ccc(N2CCC[C@@H]2c2csc(NC(=O)c3cccn3Cc3ccnc(F)c3)n2)cc1 [Compound A123] = 143

[P] CN(C)c1cccc(-c2csc(NC(=O)c3cccn3Cc3ccncc3)n2)c1 [Compound A76]
[Q] CNS(=O)(=O)N1CC(Oc2ccc(N3CCC[C@@H]3c3csc(NC(=O)c4cccn4Cc4ccnc(F)c4)n3)cc2)C1 [Compound A151]
[in] Which value of IC50 is greater, the one for P or the one for Q ? Refer to your chosen item by its label in the answer.
[out] P
(P: 6660 nM, Q: 386 nM)

====

# RUN DESCRIPTION: Liver Microsome Stability Assay (rat)
# CONDITION SET: rat liver microsomes, with NADPH, 1.0 uM compound
PROPERTY MEASURED: Liver Microsome Stability (Multiple Species): Rat - % Remaining after 30 min w/NADPH (%)

Sample records with Liver Microsome Stability (Multiple Species): Rat - % Remaining after 30 min w/NADPH:
NC(=O)N1CCC(Oc2ccc(N3CCC[C@@H]3c3csc(NC(=O)c4cccn4Cc4ccnc(F)c4)n3)cn2)CC1 = 19.7
NC(=O)CCn1cccc1C(=O)Nc1nc([C@H]2CCCN2c2ccccc2)cs1 = 18.3
C#CCCCn1cccc1C(=O)Nc1nc([C@H]2CCCN2c2ccccc2)cs1 = 5.84
CC(=O)N(C)CCOc1ccc(N2CCC[C@@H]2c2csc(NC(=O)c3cccn3Cc3ccnc(F)c3)n2)cc1 = 8.86
NC(=O)c1ccc(N2CCC[C@@H]2c2csc(NC(=O)c3cccn3Cc3ccncc3)n2)cc1 = 0.39
NC(=O)N1CCC(Oc2ccc(N3CCC[C@@H]3c3csc(NC(=O)c4cccn4Cc4ccnc(F)c4)n3)cc2)CC1 = 57.9

[I] CC(C)n1cncc1/C=C/c1csc(NC(=O)c2cccn2Cc2ccncc2)n1
[II] O=C(Nc1nc(/C=C/c2ccon2)cs1)c1cccn1Cc1ccncc1
[in] Smaller Liver Microsome Stability (Multiple Species): Rat - % Remaining after 30 min w/NADPH value, I vs II ? Give the label under which the chosen entry appears.
[out] II

====

# RUN DESCRIPTION: Liver Microsome Stability Assay (rat)
# CONDITION SET: rat liver microsomes, with NADPH, 1.0 uM compound
PROPERTY MEASURED: Liver Microsome Stability (Multiple Species): Rat - % Remaining after 30 min w/NADPH (%)

Cc1ccc(S(=O)(=O)N(C(=O)c2cccn2Cc2ccncc2)c2nc([C@H]3CCCN3S(=O)(=O)c3ccc(C)cc3)cs2)cc1 = 9.09

[1] COCCn1cnc(/C=C/c2csc(NC(=O)c3cccn3Cc3ccncc3)n2)c1
[2] O=C(Nc1nc([C@H]2CCCN2c2ccccc2)cs1)c1cccn1CCCC1COC1
[in] Sorting by Liver Microsome Stability (Multiple Species): Rat - % Remaining after 30 min w/NADPH in descending order, would 1 or 2 appear first? Respond using the label that marks the chosen record.
[out] 2
(2: 6.02%, 1: 0.57%)
